Hey, just so you know, these numbers are from ChEMBL document CHEMBL5154702.

// IC50 lookup, one value per entry
- System: SGC-7901
- run_description: Antiproliferative activity against human SGC-7901 cells measured after 48 hrs by MTT assay
- Assay type: functional, cell-based
- setup_conditions: SGC-7901, 48 h
Provide the reading as a plain figure in µM.

IN: Bench note: what IC50 did "CCCCNc1nc(Cl)nc2c1ncn2CCCC(=O)NCc1ccc(C(=O)Nc2ccccc2N)cc1" show?
OUT: 64.1

IN: Fill in the blank: the reported IC50 of "CCCNc1nc(Cl)nc2c1ncn2CCCC(=O)NCc1ccc(C(=O)Nc2ccccc2N)cc1" is ____.
OUT: 21.1

IN: Using the record for "O=C(CCCCCCC(=O)Nc1ccccc1)NO" , report its IC50.
OUT: 2.12

IN: Return reported IC50; argument: "CNc1nc(Cl)nc2c1ncn2CCCC(=O)NCc1ccc(C(=O)Nc2ccccc2N)cc1"
OUT: 27

IN: Value lookup for IC50; key = "CCCCNc1nc(Cl)nc2c1ncn2Cc1ccc(C(=O)Nc2ccccc2N)cc1"
OUT: 1.52

IN: Reported IC50 for "Nc1ccccc1NC(=O)c1ccc(CNC(=O)OCc2cccnc2)cc1" : what is it?
OUT: 0.98

IN: Report IC50 for "CCCCCNc1nc(Cl)nc2c1ncn2CCCC(=O)NCc1ccc(C(=O)Nc2ccccc2N)cc1" please.
OUT: 19.6

IN: Query: IC50; subject: "CCN(CC)c1nc(Cl)nc2c1ncn2CCCC(=O)NCc1ccc(C(=O)Nc2ccccc2N)cc1"
OUT: 59.9

IN: Entry under review: "CCNc1nc(Cl)nc2c1ncn2Cc1ccc(C(=O)Nc2ccccc2N)cc1" . Reported IC50?
OUT: 0.99

IN: # get_value(readout='IC50', item= "CCNc1nc(Cl)nc2c1ncn2CCCC(=O)NCc1ccc(C(=O)Nc2ccccc2N)cc1" )
OUT: 56.8

IN: Report IC50 for "CCCNc1nc(Cl)nc2c1ncn2Cc1ccc(C(=O)Nc2ccccc2N)cc1" please.
OUT: 1.99

IN: So what's the measured IC50 for this one? "CNc1nc(Cl)nc2c1ncn2Cc1ccc(C(=O)Nc2ccccc2N)cc1"
OUT: 5.16

====

# IC50 per entry
- study_target: UniProtKB Q9UBN7
- Sequence (Q9UBN7 whole entry, the tested form may be a part): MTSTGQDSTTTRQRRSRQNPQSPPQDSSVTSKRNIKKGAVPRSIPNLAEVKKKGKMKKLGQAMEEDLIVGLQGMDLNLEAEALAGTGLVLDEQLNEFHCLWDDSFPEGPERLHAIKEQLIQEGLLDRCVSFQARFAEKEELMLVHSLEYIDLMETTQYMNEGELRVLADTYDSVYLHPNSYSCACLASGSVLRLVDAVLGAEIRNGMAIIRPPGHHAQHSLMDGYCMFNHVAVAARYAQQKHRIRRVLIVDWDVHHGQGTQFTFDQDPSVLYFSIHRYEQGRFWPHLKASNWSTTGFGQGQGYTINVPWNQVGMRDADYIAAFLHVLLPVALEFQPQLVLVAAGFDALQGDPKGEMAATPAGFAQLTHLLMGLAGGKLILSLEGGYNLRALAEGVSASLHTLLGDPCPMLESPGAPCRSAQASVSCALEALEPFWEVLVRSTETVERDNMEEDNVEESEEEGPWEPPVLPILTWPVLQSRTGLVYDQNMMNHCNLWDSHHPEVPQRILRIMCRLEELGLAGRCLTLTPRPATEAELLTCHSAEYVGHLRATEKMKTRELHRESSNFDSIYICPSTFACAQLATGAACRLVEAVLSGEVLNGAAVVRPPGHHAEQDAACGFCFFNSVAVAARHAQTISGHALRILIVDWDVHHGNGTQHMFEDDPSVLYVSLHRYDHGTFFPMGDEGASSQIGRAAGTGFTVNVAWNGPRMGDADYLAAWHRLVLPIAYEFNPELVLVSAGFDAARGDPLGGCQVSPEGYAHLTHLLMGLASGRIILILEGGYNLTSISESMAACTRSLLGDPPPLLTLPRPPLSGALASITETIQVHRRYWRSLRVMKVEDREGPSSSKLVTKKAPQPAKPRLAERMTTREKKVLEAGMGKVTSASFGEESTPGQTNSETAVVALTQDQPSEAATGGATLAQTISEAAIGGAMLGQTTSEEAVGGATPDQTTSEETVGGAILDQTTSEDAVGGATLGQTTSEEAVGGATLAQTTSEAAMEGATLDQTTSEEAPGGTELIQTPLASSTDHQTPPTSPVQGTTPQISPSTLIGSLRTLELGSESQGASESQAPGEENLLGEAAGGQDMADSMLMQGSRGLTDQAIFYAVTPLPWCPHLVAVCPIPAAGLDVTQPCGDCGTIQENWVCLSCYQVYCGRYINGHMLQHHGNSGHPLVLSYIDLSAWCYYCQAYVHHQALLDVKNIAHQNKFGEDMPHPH
- run_description: Inhibition of recombinant human N-terminal GST-tagged HDAC6 (1 to 1215 residues) expressed in Sf9 insect cells using fluorogenic HDAC substrate 3 measured after 30 mins by fluorimetry
Note: unit µM is implicit; provide only the numeric part.

IN: Entry "CCCCNc1nc(Cl)nc2c1ncn2Cc1ccc(C(=O)Nc2ccccc2N)cc1" , system UniProtKB Q9UBN7: what IC50 was measured?
OUT: 34.2

IN: GET /values?readout=IC50&system=UniProtKB Q9UBN7&item= "CCNc1nc(Cl)nc2c1ncn2Cc1ccc(C(=O)Nc2ccccc2N)cc1"
OUT: 31.7

IN: Can you look up IC50 on UniProtKB Q9UBN7 for "CCCNc1nc(Cl)nc2c1ncn2Cc1ccc(C(=O)Nc2ccccc2N)cc1" ?
OUT: 43.7

IN: Hello, I am looking for reported IC50 with UniProtKB Q9UBN7 for "CNc1nc(Cl)nc2c1ncn2Cc1ccc(C(=O)Nc2ccccc2N)cc1" . Could you help?
OUT: 21.8

====

- study_target: Histone deacetylase
- Assay type: cell-based, Homo sapiens
- setup_conditions: hela
Measured IC50 accompanies every entry in the list below.
Please give a number only; it is taken to be in nM.

>>> reported_result("CCCNc1nc(Cl)nc2c1ncn2Cc1ccc(C(=O)Nc2ccc(F)cc2N)cc1")
4410
>>> reported_result("CNc1nc(Cl)nc2c1ncn2CCCC(=O)NCc1ccc(C(=O)Nc2ccccc2N)cc1")
5020
>>> reported_result("CCCCNc1nc(Cl)nc2c1ncn2CCCC(=O)NCc1ccc(C(=O)Nc2ccccc2N)cc1")
950
>>> reported_result("Nc1cc(Br)ccc1NC(=O)c1ccc(Cn2cnc3c(Cl)nc(Cl)nc32)cc1")
9100
>>> reported_result("CCCCCNc1nc(Cl)nc2c1ncn2Cc1ccc(C(=O)Nc2ccc(Br)cc2N)cc1")
18680

We next turn to a different compound, shown below.
IN: Requested read-out: IC50. Entry: "CCNc1nc(Cl)nc2c1ncn2Cc1ccc(C(=O)Nc2ccccc2N)cc1"
OUT: 1640

====

- System: A549
- run_description: cells
- Format: functional, cell-based
- setup_conditions: Homo sapiens, A549, 48 h
Reported IC50 values follow for various compounds
Entry rule: numbers only, all in µM.

>>> reported_result("CCCCCNc1nc(Cl)nc2c1ncn2CCCC(=O)NCc1ccc(C(=O)Nc2ccccc2N)cc1")
177
>>> reported_result("CNc1nc(Cl)nc2c1ncn2CCCC(=O)NCc1ccc(C(=O)Nc2ccccc2N)cc1")
97
>>> reported_result("CCCCNc1nc(Cl)nc2c1ncn2Cc1ccc(C(=O)Nc2ccccc2N)cc1")
1.65

IN: Looking for the measured IC50 of "CCCCNc1nc(Cl)nc2c1ncn2CCCC(=O)NCc1ccc(C(=O)Nc2ccccc2N)cc1" , can you help?
OUT: 165

IN: I would be grateful if you could share the reported IC50 for "CCN(CC)c1nc(Cl)nc2c1ncn2CCCC(=O)NCc1ccc(C(=O)Nc2ccccc2N)cc1" .
OUT: 392

IN: What does the data say about its IC50? Entry: "CNc1nc(Cl)nc2c1ncn2Cc1ccc(C(=O)Nc2ccccc2N)cc1"
OUT: 0.86

IN: IC50 for "CCNc1nc(Cl)nc2c1ncn2CCCC(=O)NCc1ccc(C(=O)Nc2ccccc2N)cc1" ?
OUT: 149

IN: Which IC50 is reported for this compound? "CCNc1nc(Cl)nc2c1ncn2Cc1ccc(C(=O)Nc2ccccc2N)cc1"
OUT: 0.86

IN: Which measured IC50 value corresponds to "CCCNc1nc(Cl)nc2c1ncn2Cc1ccc(C(=O)Nc2ccccc2N)cc1" ?
OUT: 0.8

IN: // IC50 lookup, key: "CCCNc1nc(Cl)nc2c1ncn2CCCC(=O)NCc1ccc(C(=O)Nc2ccccc2N)cc1"
OUT: 514

IN: Fill in: IC50 of "Nc1ccccc1NC(=O)c1ccc(CNC(=O)OCc2cccnc2)cc1" is ___
OUT: 1.48

====

- run_description: in vitro
- setup_conditions: dog, liver microsomes
attribute_measured: half-life
Form field: result (number plus unit)

IN: Would you kindly share the measured half-life for "O=C(CCCCCCC(=O)Nc1ccccc1)NO" ?
OUT: 30 min

====

- Test system: HCT-116
- run_description: Antiproliferative activity against human HCT-116 cells measured after 48 hrs by MTT assay
- Type: functional, cell-based
- setup_conditions: HCT-116, 48 h
pIC50: −log10 of the molar value.
Decision: pIC50 >= 5 yields Met, all other cases yield Not met.

Examples with answers:
>>> classification("CNc1nc(Cl)nc2c1ncn2CCCC(=O)NCc1ccc(C(=O)Nc2ccccc2N)cc1")
"Not met"
>>> classification("CCCNc1nc(Cl)nc2c1ncn2CCCC(=O)NCc1ccc(C(=O)Nc2ccccc2N)cc1")
"Not met"
>>> classification("Nc1ccccc1NC(=O)c1ccc(CNC(=O)OCc2cccnc2)cc1")
"Met"
>>> classification("CCCNc1nc(Cl)nc2c1ncn2Cc1ccc(C(=O)Nc2ccccc2N)cc1")
"Met"
>>> classification("CCN(CC)c1nc(Cl)nc2c1ncn2CCCC(=O)NCc1ccc(C(=O)Nc2ccccc2N)cc1")
"Not met"
>>> classification("CCNc1nc(Cl)nc2c1ncn2Cc1ccc(C(=O)Nc2ccccc2N)cc1")
"Met"
>>> classification("CCNc1nc(Cl)nc2c1ncn2CCCC(=O)NCc1ccc(C(=O)Nc2ccccc2N)cc1")
"Not met"
>>> classification("O=C(CCCCCCC(=O)Nc1ccccc1)NO")
"Met"

IN: # check: pIC50 of "CNc1nc(Cl)nc2c1ncn2Cc1ccc(C(=O)Nc2ccccc2N)cc1" is greater than or equal to 5
OUT: Met

IN: Decide: pIC50 of "CCCCNc1nc(Cl)nc2c1ncn2Cc1ccc(C(=O)Nc2ccccc2N)cc1" >= 5?
OUT: Met

IN: Can "CCCCCNc1nc(Cl)nc2c1ncn2CCCC(=O)NCc1ccc(C(=O)Nc2ccccc2N)cc1" be said to have pIC50 at or above 5?
OUT: Not met

====

- study_target: Histone deacetylase
- Type: cell-based, Homo sapiens
- setup_conditions: hela
attribute_measured: IC50

Worked examples, 5 compounds total:
>>> reported_result("CCN(CC)c1nc(Cl)nc2c1ncn2Cc1ccc(C(=O)Nc2ccc(F)cc2N)cc1")
"4.24 µM"
>>> reported_result("CNc1nc(Cl)nc2c1ncn2Cc1ccc(C(=O)Nc2ccc(C)cc2N)cc1")
"1.98 µM"
>>> reported_result("CCNc1nc(Cl)nc2c1ncn2CCCC(=O)NCc1ccc(C(=O)Nc2ccccc2N)cc1")
"2.31 µM"
>>> reported_result("CCCCNc1nc(Cl)nc2c1ncn2Cc1ccc(C(=O)Nc2ccc(C)cc2N)cc1")
"1.01 µM"
>>> reported_result("CNc1nc(Cl)nc2c1ncn2Cc1ccc(C(=O)Nc2ccc(F)cc2N)cc1")
"1.73 µM"

IN: Please look up its IC50: "CCCCNc1nc(Cl)nc2c1ncn2Cc1ccc(C(=O)Nc2ccc(F)cc2N)cc1"
OUT: 1.28 µM

IN: Look up IC50 for this compound: "CCNc1nc(Cl)nc2c1ncn2Cc1ccc(C(=O)Nc2ccc(Br)cc2N)cc1"
OUT: 10.33 µM

IN: Data request, read-out IC50, for "CCCNc1nc(Cl)nc2c1ncn2Cc1ccc(C(=O)Nc2ccc(C)cc2N)cc1"
OUT: 3.13 µM

IN: IC50 lookup needed for "CCN(CC)c1nc(Cl)nc2c1ncn2Cc1ccc(C(=O)Nc2ccc(C)cc2N)cc1" , thanks.
OUT: 4.33 µM
